Assign EC50 to each entry below.
Target: human TLR7 (Homo sapiens, UniProt Q9NYK1)
Test: Human TLR7 agonist activity reporter assay (HEK-Blue TLR7 cells, SEAP reporter)
Settings: human TLR7 (hTLR7) reporter assay, SEAP readout after 18 h, average where assay repeated, read-out: TLR7 Agonism EC50
Method: Human TLR7 Agonist Activity Assay This procedure describes a method for assaying human TLR7 (hTLR7) agonist activity of the compounds disclosed in this specification. HEK-Blue™ TLR7 cells were added to each well of a 384-well tissue-culture plate (15,000 cells per well) and incubated 16-18 h at 37° C., 5% CO2. Compounds (100 nl) were dispensed into wells containing the HEK-Blue™ TLR cells and the treated cells were incubated at 37° C., 5% CO2. […]
Report the figure in nM without appending any unit label.

Consider the compound shown here: CCC[C@@H](CCO)Nc1nc(N)nc2cnn(Cc3ccc(C(=O)N4C[C@H]5C[C@@H]4CN5C)c4cccnc34)c12 What is its recorded EC50?
191

Moving on to CCC[C@@H](CCO)Nc1nc(N)nc2cnn(Cc3ccc(C4CCN(C5CCOCC5)CC4)c4cccnc34)c12
8.6

Moving on to CCC[C@@H](CCO)Nc1nc(N)nc2c(C)nn(Cc3ccc(C(=O)NC4CCOCC4)c4cccnc34)c12
606

Moving on to CCC[C@@H](CCO)Nc1nc(N)nc2cnn(Cc3ccc(CN4C[C@H]5CN(C)C[C@H]5C4)c4cccnc34)c12
8.3

Moving on to CCC[C@@H](CCO)Nc1nc(N)nc2c(C)nn(Cc3ccc(C(=O)NC4CCN(C)CC4)c4cccnc34)c12
732

Moving on to CCC[C@@H](CCO)Nc1nc(N)nc2cnn(Cc3ccc(C(=O)N4CCOCC4)c4cccnc34)c12
186

Moving on to CCC[C@@H](CCO)Nc1nc(N)nc2cnn(Cc3ccc(C(=O)N4CCN(C)CC4)c4cccnc34)c12
4.9

---

Target: human TLR7 (Homo sapiens)
Construct: host or cells: HEK-Blue TLR7 cells (engineered human embryonic kidney cells)
Sequence (Q9NYK1 27-1049): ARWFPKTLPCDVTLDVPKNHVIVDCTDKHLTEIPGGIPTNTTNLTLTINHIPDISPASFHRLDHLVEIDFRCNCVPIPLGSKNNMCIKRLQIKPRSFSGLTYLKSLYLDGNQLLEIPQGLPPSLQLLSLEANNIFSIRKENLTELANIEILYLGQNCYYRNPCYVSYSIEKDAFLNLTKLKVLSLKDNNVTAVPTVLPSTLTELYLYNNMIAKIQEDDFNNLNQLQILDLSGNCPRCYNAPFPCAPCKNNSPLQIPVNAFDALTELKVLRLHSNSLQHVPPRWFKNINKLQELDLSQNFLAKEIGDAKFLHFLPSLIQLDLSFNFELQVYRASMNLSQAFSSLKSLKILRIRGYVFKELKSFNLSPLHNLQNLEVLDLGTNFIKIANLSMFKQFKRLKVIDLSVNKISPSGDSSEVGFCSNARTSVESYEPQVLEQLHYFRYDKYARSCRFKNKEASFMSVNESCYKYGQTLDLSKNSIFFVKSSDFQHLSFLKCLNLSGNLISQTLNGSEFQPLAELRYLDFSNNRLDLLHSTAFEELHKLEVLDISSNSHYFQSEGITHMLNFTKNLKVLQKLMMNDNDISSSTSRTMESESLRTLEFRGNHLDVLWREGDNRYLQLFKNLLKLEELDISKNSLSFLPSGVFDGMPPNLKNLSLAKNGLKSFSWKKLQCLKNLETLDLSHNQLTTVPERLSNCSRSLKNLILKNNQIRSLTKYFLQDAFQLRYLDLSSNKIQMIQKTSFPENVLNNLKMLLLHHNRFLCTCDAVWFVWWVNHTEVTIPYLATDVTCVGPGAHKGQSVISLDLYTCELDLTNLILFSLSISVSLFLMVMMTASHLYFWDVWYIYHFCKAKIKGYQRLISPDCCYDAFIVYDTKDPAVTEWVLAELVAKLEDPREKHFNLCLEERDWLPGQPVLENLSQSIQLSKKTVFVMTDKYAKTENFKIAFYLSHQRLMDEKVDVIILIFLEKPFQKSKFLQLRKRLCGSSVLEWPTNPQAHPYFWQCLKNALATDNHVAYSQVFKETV
Test: Human TLR7 agonist activity reporter assay (HEK-Blue TLR7 cells, SEAP reporter)
Type: cell-based
Details: human TLR7 (hTLR7) reporter assay, SEAP readout after 18 h, average where assay repeated, read-out: TLR7 Agonism EC50
Assign EC50 to each entry below.
Report the figure in nM without appending any unit label.

Consider the compound shown here: CN1CCC(NC(=O)c2ccc(Cn3ncc4nc(N)nc(NCC5CC6(CC6)C5)c43)c3ncccc23)CC1 [Compound 116] What is its recorded EC50?
280

Moving on to CCC[C@@H](CCO)Nc1nc(N)nc2cnn(Cc3ccc(C(=O)N4CCC(CCO)CC4)c4cccnc34)c12 [Compound 134]
35.4

Moving on to Cc1cc(CNc2nc(N)nc3cnn(Cc4ccc(C(=O)N5CC6(CN(C)C6)C5)c5cccnc45)c23)no1 [Compound 138]
275

Moving on to CCC[C@@H](CCO)Nc1nc(N)nc2cnn(Cc3ccc(C(=O)N4CC(CCOC)C4)c4cccnc34)c12 [Compound 128]
54.6

Moving on to Cc1cc(CNc2nc(N)nc3cnn(Cc4ccc(C(=O)NC5CCN(C)CC5)c5cccnc45)c23)no1 [Compound 122]
309

Moving on to CCC[C@@H](CCO)Nc1nc(N)nc2cnn(Cc3ccc(CNC4CCC4)c4cccnc34)c12 [Compound 103]
13.8

Moving on to Nc1nc(NCC2CC3(CC3)C2)c2c(cnn2Cc2ccc(C(=O)N3CCNC(=O)C3)c3cccnc23)n1 [Compound 117]
447

Moving on to CCC[C@@H](CCO)Nc1nc(N)nc2cnn(Cc3ccc(C4CCN(C(C)C)CC4)c4cccnc34)c12 [Compound 143]
6.1

Moving on to CCC[C@@H](CCO)Nc1nc(N)nc2cnn(Cc3ccc(C4CCNCC4)c4cccnc34)c12 [Compound 141]
21.7

Moving on to CCC[C@@H](CCO)Nc1nc(N)nc2c(C)nn(Cc3ccc(C(=O)N4CCN(CCO)CC4)c4cccnc34)c12 [Compound 120]
882

Moving on to CCC[C@@H](CCO)Nc1nc(N)nc2cnn(Cc3ccc(C(=O)N4C[C@H]5CN(C)C[C@H]5C4)c4cccnc34)c12 [Compound 125]
33.7

Moving on to CCC[C@@H](CCO)Nc1nc(N)nc2cnn(Cc3ccc(CN4CC5(CCOCC5)C4)c4cccnc34)c12 [Compound 106]
19.3

Moving on to CCC[C@@H](CCO)Nc1nc(N)nc2cnn(Cc3ccc(C(=O)N4CC5(COC5)C4)c4cccnc34)c12 [Compound 127]
54.8

Moving on to CCC[C@@H](CCO)Nc1nc(N)nc2cnn(Cc3ccc(C(=O)N4CCN(CCO)CC4)c4cccnc34)c12 [Compound 111]
66

Moving on to Nc1nc(NCC2CC3(CC3)C2)c2c(cnn2Cc2ccc(C(=O)N3CCN(CCO)CC3)c3cccnc23)n1 [Compound 115]
468

---

Assign EC50 to each entry below.
target: human TLR7 (Homo sapiens, UniProt Q9NYK1); test: Human TLR7 agonist activity reporter assay (HEK-Blue TLR7 cells, SEAP reporter); conditions: human TLR7 (hTLR7) reporter assay, SEAP readout after 18 h, average where assay repeated, read-out: TLR7 Agonism EC50
Answers without a unit are incomplete; give the number and then its unit.

Consider the molecule shown here: CCCCNc1nc(N)nc2cnn(Cc3ccc(CN4CCOCC4)c4cccnc34)c12 What is its recorded EC50?
156 nM

Moving on to CCC[C@@H](CCO)Nc1nc(N)nc2cnn(Cc3ccc(C(=O)NCCCCO)c4cccnc34)c12
231 nM

Moving on to CCC[C@@H](CCO)Nc1nc(N)nc2cnn(Cc3ccc(C(=O)NC4CCOCC4)c4cccnc34)c12
75.2 nM

Provenance of the data: patent US12485123B2
